test system: HOP-92; assay: NCI tumour cell line growth inhibition, 48 h
Activity calls are given as the source filed them. No stated cut-off is given here; in the data, active = GI50 up to about 1.1 µM and inactive = higher.
Each entry below carries its recorded GI50.
measured-endpoint: GI50

{"molecule": "C=CCOC1OC(CS(=O)(=O)O)C(OC(C)=O)C(OC(C)=O)C1OC(C)=O (stereo not drawn)", "endpoint-value": "> 100 µM (inactive)"}
{"molecule": "COc1cc(C2SC(=N)Nc3c2c(C)nn3C(=O)c2ccc(Cl)cc2)cc(OC)c1OC (stereo not drawn)", "endpoint-value": "> 10 µM (inactive)"}
{"molecule": "Cc1cccc(C)c1NC(=O)CCC(=O)CC(=O)C(C)C", "endpoint-value": "> 100 µM (inactive)"}
{"molecule": "COC1CCC(OS(C)(=O)=O)C(CO)O1 (stereo not drawn)", "endpoint-value": "> 100 µM (inactive)"}
{"molecule": "CC(C)NC(=O)OCCN=c1c2ccccc2ccc2ccccc12", "endpoint-value": "27.2 µM (inactive)"}
{"molecule": "CCOC(=O)C1=NN(c2ccccc2)C(=O)/C1=C\\NC(=S)C(N)=S", "endpoint-value": "39.1 µM (inactive)"}
{"molecule": "CC1(C)OC(=O)N(c2ccccc2)C12C=Cc1cccc([N+](=O)[O-])c1O2 (stereo not drawn)", "endpoint-value": "> 100 µM (inactive)"}
{"molecule": "O=C1Sc2ccccc2NC1=C(C(=O)c1ccccc1)C(=O)c1ccccc1", "endpoint-value": "36.6 µM (inactive)"}
{"molecule": "COc1cc(OC)c2c(c1)OC(c1cccnc1)C(c1ccccc1)C2=O (stereo not drawn)", "endpoint-value": "> 100 µM (inactive)"}
{"molecule": "CN(NC(=O)c1ccco1)C1=NCCCCN1", "endpoint-value": "> 100 µM (inactive)"}
{"molecule": "CC(=O)OCC1OC(NC(=S)CCSc2nc3ccccc3c(=O)n2-c2ccccc2)C(OC(C)=O)C(OC(C)=O)C1OC(C)=O (stereo not drawn)", "endpoint-value": "16.9 µM (inactive)"}
{"molecule": "Cc1ccccc1NC(=O)C(=O)CC(=O)c1ccc([N+](=O)[O-])cc1", "endpoint-value": "> 100 µM (inactive)"}
{"molecule": "CC1=C(C(=O)Nc2cccc3c2C(=O)NC3=O)CC(C(=O)Nc2cccc3c2C(=O)NC3=O)=C(C)N1", "endpoint-value": "> 100 µM (inactive)"}
{"molecule": "CN(C)CC(C)(C)CN1c2ccccc2Sc2ccccc21", "endpoint-value": "11.8 µM (inactive)"}
{"molecule": "CCOC(=O)C1(C#N)C2(C#N)C(N)=NC(ON=C(C)C)(ON=C(C)C)C12C#N (stereo not drawn)", "endpoint-value": "> 100 µM (inactive)"}
{"molecule": "Cc1ccc(N/C(Sc2ccccc2)=C(/C(Cl)=C(Cl)Cl)[N+](=O)[O-])c(C)c1", "endpoint-value": "14 µM (inactive)"}
{"molecule": "O=[N+]([O-])/C(C(Cl)=C(Cl)Cl)=C(/Sc1ccccc1)N1CCCCC1", "endpoint-value": "> 100 µM (inactive)"}
{"molecule": "NC(=O)C(=O)N/N=C1\\C(=O)N(c2ccc(Cl)cc2Cl)C(=O)C1C(=O)Nc1ccc(Cl)cc1Cl (stereo not drawn)", "endpoint-value": "> 100 µM (inactive)"}
{"molecule": "CC(=O)Nc1c(Nc2ccccc2)[nH]c(C)nc1=S", "endpoint-value": "> 100 µM (inactive)"}
{"molecule": "O=C(O)C(Cc1ccc(O)c([N+](=O)[O-])c1)N1C(=O)c2ccccc2C1=O (stereo not drawn)", "endpoint-value": "> 100 µM (inactive)"}
{"molecule": "Cc1ccc(S(=O)(=O)N2CCN(CCO)CCN(S(=O)(=O)c3ccc(C)cc3)CCN(CCO)CC2)cc1", "endpoint-value": "21.5 µM (inactive)"}
{"molecule": "Cc1cc(=O)n(-c2ccccc2)c(=O)o1", "endpoint-value": "> 100 µM (inactive)"}
{"molecule": "Cc1ccc(-c2cc(O)c3cc4c(cc3n2)OCO4)cc1", "endpoint-value": "1.87 µM (inactive)"}
{"molecule": "C/C1=C\\CC/C(C)=C/C=C(/C(C)C)CC/C(C(=O)O)=C/CC1 [CROTOCEMBRANEIC ACID]", "endpoint-value": "92.3 µM (inactive)"}
{"molecule": "COC(=O)[C@@H]1CN(C(=O)c2ccccc2)C(=O)N1", "endpoint-value": "> 100 µM (inactive)"}
{"molecule": "O=C(C=P(c1ccccc1)(c1ccccc1)c1ccccc1)CC(=S)CC(=O)C=P(c1ccccc1)(c1ccccc1)c1ccccc1", "endpoint-value": "1.65 µM (inactive)"}
{"molecule": "O=C1NC2CCCCC2N=C1CC(=O)c1ccc(Br)cc1 (stereo not drawn)", "endpoint-value": "10.2 µM (inactive)"}
{"molecule": "Cc1cc(=O)oc2cc(OC(=O)Nc3ccc(Cl)c(Cl)c3)ccc12", "endpoint-value": "13.6 µM (inactive)"}
{"molecule": "CC1=CC(=O)NP(=O)(Oc2ccc(C)cc2)N1 (stereo not drawn)", "endpoint-value": "> 100 µM (inactive)"}
{"molecule": "COC1(OC)c2occc2C(=N)c2ccc(=O)oc21", "endpoint-value": "> 100 µM (inactive)"}
{"molecule": "Cc1cc(NS(=O)(=O)c2ccc(NC(=O)COC(=O)c3cccc4c(=O)c5ccccc5[nH]c34)cc2)no1", "endpoint-value": "> 100 µM (inactive)"}
{"molecule": "O=C1C(Br)=CC2(C=C1Br)CCNC1=C2C(=O)c2cccnc2C1=O", "endpoint-value": "16 µM (inactive)"}
{"molecule": "CC(=O)OCC1OC(N2C(=O)NC(=O)C3C=C4CCCCC4=CC32)CC1OC(C)=O (stereo not drawn)", "endpoint-value": "> 100 µM (inactive)"}

Ref: ChEMBL document CHEMBL1201862
